The measurements presented in this section are drawn from patent US8871753B2.

System tested: TYK2 (Homo sapiens, UniProt P29597)
Sequence (P29597 whole entry): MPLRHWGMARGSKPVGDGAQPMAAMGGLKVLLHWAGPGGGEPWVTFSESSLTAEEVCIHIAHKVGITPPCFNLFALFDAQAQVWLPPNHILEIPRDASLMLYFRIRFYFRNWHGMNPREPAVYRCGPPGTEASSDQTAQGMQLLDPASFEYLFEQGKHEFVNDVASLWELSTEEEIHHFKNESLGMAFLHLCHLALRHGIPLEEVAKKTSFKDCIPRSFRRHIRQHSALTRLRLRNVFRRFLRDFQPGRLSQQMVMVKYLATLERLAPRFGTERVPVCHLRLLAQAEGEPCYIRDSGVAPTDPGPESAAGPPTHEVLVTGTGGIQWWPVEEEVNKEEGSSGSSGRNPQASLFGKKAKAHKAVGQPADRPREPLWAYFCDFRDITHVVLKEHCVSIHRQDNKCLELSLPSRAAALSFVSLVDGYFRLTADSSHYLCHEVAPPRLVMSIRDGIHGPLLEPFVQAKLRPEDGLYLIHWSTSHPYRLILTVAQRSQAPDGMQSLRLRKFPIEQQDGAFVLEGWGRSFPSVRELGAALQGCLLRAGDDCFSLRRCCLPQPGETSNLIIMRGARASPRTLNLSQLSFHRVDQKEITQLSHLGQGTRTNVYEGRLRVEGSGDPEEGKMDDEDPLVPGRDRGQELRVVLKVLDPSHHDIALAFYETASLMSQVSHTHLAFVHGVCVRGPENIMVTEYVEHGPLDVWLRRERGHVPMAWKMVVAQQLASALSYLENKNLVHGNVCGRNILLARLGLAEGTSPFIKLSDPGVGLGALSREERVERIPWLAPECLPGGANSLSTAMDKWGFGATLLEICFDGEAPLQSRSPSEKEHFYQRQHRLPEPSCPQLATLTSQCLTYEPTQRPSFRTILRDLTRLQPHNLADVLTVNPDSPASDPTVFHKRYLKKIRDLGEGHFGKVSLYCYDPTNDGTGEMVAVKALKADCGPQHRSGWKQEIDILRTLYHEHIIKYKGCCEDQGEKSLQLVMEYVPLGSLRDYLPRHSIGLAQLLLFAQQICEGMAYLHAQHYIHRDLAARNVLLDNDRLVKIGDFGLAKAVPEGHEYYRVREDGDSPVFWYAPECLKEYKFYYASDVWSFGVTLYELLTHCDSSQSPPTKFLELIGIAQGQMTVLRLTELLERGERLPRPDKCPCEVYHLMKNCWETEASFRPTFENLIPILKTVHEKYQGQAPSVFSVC
Assay explanation: TYK2 kinase inhibition (Table A1)
Type: biochemical
Reported conditions: Table D1
pIC50: −log10 of the molar value. Where a name gives a salt, the structure may show the parent alone.
Parameter measured: pIC50

Compound	System tested	Parameter measured	Rel	Result
O=C(COc1ccc2cc1CCc1cncc(c1)Nc1ncc(Cl)c(n1)N2)N1CCN(c2cccc(C(F)(F)F)n2)CC1 [Example D248, tris(trifluoroacetate)]	TYK2 (Homo sapiens, UniProt P29597)	pIC50	<	6.40
CC(=O)N1CCC(COc2ccc3cc2CCc2cncc(c2)Nc2ncc(Cl)c(n2)N3)CC1 [Example D227, bis(trifluoroacetate)]	TYK2 (Homo sapiens, UniProt P29597)	pIC50	<	6.40
O=C(C[C@H]1CCN(c2nc3ccccc3s2)C1)Nc1ccc2cc1CCc1cncc(c1)Nc1ncc(Cl)c(n1)N2 [Example D136, tris(trifluoroacetate)]	TYK2 (Homo sapiens, UniProt P29597)	pIC50	=	6.97
Clc1cnc2nc1Nc1cccc(c1)OCCc1cc(Br)cc(c1)N2 [Example D22, trifluoroacetate]	TYK2 (Homo sapiens, UniProt P29597)	pIC50	=	7.55
Clc1cnc2nc1Nc1cccc(c1)CCCNc1cccc(c1)N2 [Example D77, bis(trifluoroacetate)]	TYK2 (Homo sapiens, UniProt P29597)	pIC50	=	8.25
Clc1cnc2nc1Nc1cccc(c1)CSc1cccc(c1)N2 [Example D2, trifluoroacetate]	TYK2 (Homo sapiens, UniProt P29597)	pIC50	=	7.60
CC(=O)N1Cc2cccc(c2)Nc2ncc(Cl)c(n2)Nc2cccc(c2)C1 [Example D74, trifluoroacetate]	TYK2 (Homo sapiens, UniProt P29597)	pIC50	=	6.46
O=C(COc1ccc2cc1CCc1cncc(c1)Nc1ncc(Cl)c(n1)N2)N1CCN(c2nccc3occc23)CC1 [Example D245, tris(trifluoroacetate)]	TYK2 (Homo sapiens, UniProt P29597)	pIC50	<	6.40
Clc1cnc2nc1Nc1cccc(c1)SSc1cccc(c1)N2 [Example D12, trifluoroacetate]	TYK2 (Homo sapiens, UniProt P29597)	pIC50	=	6.49
N#Cc1cccc(NC(=O)N2CCN(c3ccc4cc3CCc3cccc(c3)Nc3ncc(Cl)c(n3)N4)CC2)c1 [Example D89, bis(trifluoroacetate)]	TYK2 (Homo sapiens, UniProt P29597)	pIC50	=	7.28
O=C(NCc1ccco1)Nc1cc2cc(c1)OCCSc1cccc(c1)Nc1nc(ncc1Cl)N2 [Example D67, trifluoroacetate]	TYK2 (Homo sapiens, UniProt P29597)	pIC50	=	8.62
O=C(Nc1nccs1)c1cc2cc(c1)OCCSc1cccc(c1)Nc1nc(ncc1Cl)N2 [Example D54, trifluoroacetate]	TYK2 (Homo sapiens, UniProt P29597)	pIC50	=	7.57
O=C(COc1ccc2cc1CCc1cncc(c1)Nc1ncc(Cl)c(n1)N2)N1CCN(c2ccc(F)cc2)CC1 [Example D242, tris(trifluoroacetate)]	TYK2 (Homo sapiens, UniProt P29597)	pIC50	<	6.40
CCS(=O)(=O)N1CCN(C(=O)COc2ccc3cc2CCc2cncc(c2)Nc2ncc(Cl)c(n2)N3)CC1 [Example D263, bis(trifluoroacetate)]	TYK2 (Homo sapiens, UniProt P29597)	pIC50	<	6.40
CC(=O)N1CCN(c2cc(-c3cc4cc(c3)Nc3ncc(Cl)c(n3)Nc3cccc(c3)OCC4)ccn2)CC1 [Example D35, bis(trifluoroacetate)]	TYK2 (Homo sapiens, UniProt P29597)	pIC50	=	8.37
O=C(Nc1cc2cc(c1)OCCSc1cccc(c1)Nc1nc(ncc1Cl)N2)c1ccncc1 [Example D60, bis(trifluoroacetate)]	TYK2 (Homo sapiens, UniProt P29597)	pIC50	=	8.89
O=C(c1cc2cc(c1)OCCSc1cccc(c1)Nc1nc(ncc1Cl)N2)N1CCN(c2ccccc2)CC1 [Example D53, bis(trifluoroacetate)]	TYK2 (Homo sapiens, UniProt P29597)	pIC50	=	7.55
N#Cc1ccc(N2CCN(C(=O)COc3ccc4cc3CCc3cncc(c3)Nc3ncc(Cl)c(n3)N4)CC2)nc1 [Example D239, tris(trifluoroacetate)]	TYK2 (Homo sapiens, UniProt P29597)	pIC50	<	6.40
CC(=O)N1CCC(CCOc2ccc3cc2CCc2cncc(c2)Nc2ncc(Cl)c(n2)N3)CC1 [Example D161, bis(trifluoroacetate)]	TYK2 (Homo sapiens, UniProt P29597)	pIC50	<	6.40
O=C(Nc1ccccc1)N1CCN(c2ccc3cc2CCc2cccc(c2)Nc2ncc(Cl)c(n2)N3)CC1 [Example D92, bis(trifluoroacetate)]	TYK2 (Homo sapiens, UniProt P29597)	pIC50	=	7.60
O=C(CC1CN(C(=O)c2ccno2)C1)Nc1ccc2cc1CCc1cncc(c1)Nc1ncc(Cl)c(n1)N2 [Example D144, bis(trifluoroacetate)]	TYK2 (Homo sapiens, UniProt P29597)	pIC50	=	6.59
COc1cccnc1N1CCN(C(=O)COc2ccc3cc2CCc2cncc(c2)Nc2ncc(Cl)c(n2)N3)CC1 [Example D249, tris(trifluoroacetate)]	TYK2 (Homo sapiens, UniProt P29597)	pIC50	<	6.40
Clc1cnc2nc1Nc1cccc(c1)OCCc1cc(cc(-c3ccccc3)c1)N2 [Example D28, trifluoroacetate]	TYK2 (Homo sapiens, UniProt P29597)	pIC50	=	7.60
CC(=O)N1CCC(Nc2ccc3cc2CCc2cncc(c2)Nc2ncc(Cl)c(n2)N3)CC1 [Example D158, tris(trifluoroacetate)]	TYK2 (Homo sapiens, UniProt P29597)	pIC50	<	6.40
Clc1cnc2nc1Nc1cccc(c1)OCCc1cc(cc(-c3ccnc(N4CCNCC4)c3)c1)N2 [Example D27, tris(trifluoroacetate)]	TYK2 (Homo sapiens, UniProt P29597)	pIC50	=	8.41
O=C(Nc1cc2cc(c1)OCCSc1cccc(c1)Nc1nc(ncc1Cl)N2)c1ccco1 [Example D62, trifluoroacetate]	TYK2 (Homo sapiens, UniProt P29597)	pIC50	=	8.21

----------
System tested: TYK2 (Homo sapiens, UniProt P29597)
Assay explanation: TYK2 kinase inhibition (Table A1)
Type: biochemical
Reported conditions: Table D1
pIC50: −log10 of the molar value. Structures can show the parent of a compound that is named as a salt.
Reported pIC50 values for the following compounds.

Compound	System tested	Rel	pIC50
O=C(C[C@H]1CCCN(C(=O)Nc2ccccc2)C1)Nc1ccc2cc1CCc1cccc(c1)Nc1ncc(Cl)c(n1)N2 [Example D197, trifluoroacetate]	TYK2 (Homo sapiens, UniProt P29597)	=	7.47
Clc1cnc2nc1Nc1cccc(c1)CCSc1cccc(c1)N2 [Example D19, hydrochloride]	TYK2 (Homo sapiens, UniProt P29597)	=	6.83
COC(=O)N1CCN(C(=O)COc2ccc3cc2CCc2cncc(c2)Nc2ncc(Cl)c(n2)N3)CC1 [Example D261, bis(trifluoroacetate)]	TYK2 (Homo sapiens, UniProt P29597)	<	6.40
Cc1cc(C(=O)N2CCC(CCNc3ccc4cc3CCc3cncc(c3)Nc3ncc(Cl)c(n3)N4)CC2)no1 [Example D218, tris(trifluoroacetate)]	TYK2 (Homo sapiens, UniProt P29597)	=	7.34
Cc1ccnc(N2CCN(C(=O)COc3ccc4cc3CCc3cncc(c3)Nc3ncc(Cl)c(n3)N4)CC2)c1 [Example D237, tris(trifluoroacetate)]	TYK2 (Homo sapiens, UniProt P29597)	<	6.40
O=C(C[C@@H]1CCN(c2nc3cccnc3o2)C1)Nc1ccc2cc1CCc1cncc(c1)Nc1ncc(Cl)c(n1)N2 [Example D140, tris(trifluoroacetate)]	TYK2 (Homo sapiens, UniProt P29597)	=	6.65
Cn1cc(C(=O)N2CC(CC(=O)Nc3ccc4cc3CCc3cncc(c3)Nc3ncc(Cl)c(n3)N4)C2)cn1 [Example D142, bis(trifluoroacetate)]	TYK2 (Homo sapiens, UniProt P29597)	=	6.71
O=C(COc1ccc2cc1CCc1cncc(c1)Nc1ncc(Cl)c(n1)N2)N1CCN(C(=O)c2ccc(F)cc2F)CC1 [Example D259, bis(trifluoroacetate)]	TYK2 (Homo sapiens, UniProt P29597)	<	6.40
O=C(Nc1ccccc1)N1CCC(CCOc2ccc3cc2CCc2cncc(c2)Nc2ncc(Cl)c(n2)N3)CC1 [Example D162, bis(trifluoroacetate)]	TYK2 (Homo sapiens, UniProt P29597)	<	6.40
Clc1cnc2nc1Nc1cccc(c1)OCCc1cc(cc(-c3cnc(N4CCNCC4)nc3)c1)N2 [Example D31, tris(trifluoroacetate)]	TYK2 (Homo sapiens, UniProt P29597)	=	8.70
O=C(Nc1cccc(N2CCOCC2)n1)N1CCC(CCOc2ccc3cc2CCc2cncc(c2)Nc2ncc(Cl)c(n2)N3)CC1 [Example D176, tris(trifluoroacetate)]	TYK2 (Homo sapiens, UniProt P29597)	<	6.40
N#Cc1cccnc1N1CCN(C(=O)COc2ccc3cc2CCc2cncc(c2)Nc2ncc(Cl)c(n2)N3)CC1 [Example D238, tris(trifluoroacetate)]	TYK2 (Homo sapiens, UniProt P29597)	<	6.40

----------
System tested: Recombinant Human Anaplastic Lymphoma Kinase (Homo sapiens, UniProt Q9UM73)
Construct: purchased Invitrogen, Carlsbad, Calif
Sequence (Q9UM73 19-1620): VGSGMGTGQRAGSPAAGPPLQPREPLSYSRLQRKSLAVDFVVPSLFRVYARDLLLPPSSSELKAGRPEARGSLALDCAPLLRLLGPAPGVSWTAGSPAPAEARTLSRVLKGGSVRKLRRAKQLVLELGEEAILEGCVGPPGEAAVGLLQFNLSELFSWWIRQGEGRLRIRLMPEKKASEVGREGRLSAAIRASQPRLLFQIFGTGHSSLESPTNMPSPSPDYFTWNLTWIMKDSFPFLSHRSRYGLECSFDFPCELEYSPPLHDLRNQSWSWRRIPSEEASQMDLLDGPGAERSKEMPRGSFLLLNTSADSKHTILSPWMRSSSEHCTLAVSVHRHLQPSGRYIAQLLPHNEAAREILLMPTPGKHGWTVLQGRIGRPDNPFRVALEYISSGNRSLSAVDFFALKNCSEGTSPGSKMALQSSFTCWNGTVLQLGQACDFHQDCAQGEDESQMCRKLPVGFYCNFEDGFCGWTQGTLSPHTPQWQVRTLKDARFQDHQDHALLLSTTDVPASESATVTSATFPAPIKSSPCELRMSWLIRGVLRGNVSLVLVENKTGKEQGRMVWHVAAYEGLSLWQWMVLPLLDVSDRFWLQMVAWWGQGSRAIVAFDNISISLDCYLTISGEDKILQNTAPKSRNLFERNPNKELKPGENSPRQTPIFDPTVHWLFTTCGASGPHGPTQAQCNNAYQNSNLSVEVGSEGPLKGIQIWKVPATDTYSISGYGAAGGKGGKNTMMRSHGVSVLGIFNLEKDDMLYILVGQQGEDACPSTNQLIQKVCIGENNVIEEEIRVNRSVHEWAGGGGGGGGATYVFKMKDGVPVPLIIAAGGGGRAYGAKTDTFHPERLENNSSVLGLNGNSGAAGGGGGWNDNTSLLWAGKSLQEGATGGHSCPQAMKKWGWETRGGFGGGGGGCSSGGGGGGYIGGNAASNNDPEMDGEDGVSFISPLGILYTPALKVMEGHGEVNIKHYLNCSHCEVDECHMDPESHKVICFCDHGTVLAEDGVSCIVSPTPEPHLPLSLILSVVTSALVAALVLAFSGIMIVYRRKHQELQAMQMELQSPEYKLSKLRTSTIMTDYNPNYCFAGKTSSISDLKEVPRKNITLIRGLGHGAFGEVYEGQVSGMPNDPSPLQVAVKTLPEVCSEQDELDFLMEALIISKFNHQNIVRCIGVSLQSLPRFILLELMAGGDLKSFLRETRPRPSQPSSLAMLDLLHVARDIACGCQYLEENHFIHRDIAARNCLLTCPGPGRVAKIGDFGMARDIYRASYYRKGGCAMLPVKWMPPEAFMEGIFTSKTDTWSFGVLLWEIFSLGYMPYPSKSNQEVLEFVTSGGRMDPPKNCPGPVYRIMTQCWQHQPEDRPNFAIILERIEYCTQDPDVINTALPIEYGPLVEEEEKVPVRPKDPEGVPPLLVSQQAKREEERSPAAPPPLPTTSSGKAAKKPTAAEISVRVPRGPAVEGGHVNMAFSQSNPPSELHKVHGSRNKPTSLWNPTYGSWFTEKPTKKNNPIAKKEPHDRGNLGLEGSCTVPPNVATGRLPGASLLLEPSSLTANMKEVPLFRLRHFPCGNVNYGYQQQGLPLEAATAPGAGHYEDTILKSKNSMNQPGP
Assay explanation: ALK HTRF kinase assay
Format: biochemical
Reported conditions: compound at a concentration of 500 nM or 1 mM
Parameter measured: ALK % inhibition at a concentration of 500 nM or 1 mM (%)

Compound	Result
Clc1cnc2nc1Nc1cccc(c1)/C=C\c1cncc(c1)N2 [Example C20, bis(trifluoroacetate)]	26
Fc1cnc2nc1Nc1cccc(c1)CCc1cc(ccn1)N2	18
Clc1cnc2nc1Nc1cccc(c1)CCc1cc(ccn1)N2	26
Fc1cnc2nc1Nc1cccc(c1)CCc1cccc(n1)N2	3
Fc1cnc2nc1Nc1cccc(c1)CCc1ccnc(c1)N2	14
Clc1cnc2nc1Nc1cccc(c1)CCc1ccnc(c1)N2	6
Clc1cnc2nc1Nc1cccc(c1)CCc1cccc(n1)N2	1
Clc1cnc2nc1Nc1cccc(c1)/C=C\c1cc(ccn1)N2	19
Clc1cnc2nc1Nc1cccc(c1)CCc1cncc(c1)N2 [Example C19, bis(trifluoroacetate)]	45
Fc1cnc2nc1Nc1cccc(c1)CCc1cncc(c1)N2 [Example C21, bis(trifluoroacetate)]	26
